- ASSAY DETAILS: Solubility of active constituents in dendrimer solutions by HPLC (Example 26)
- Assay type: physicochemical
- TEST PARAMETERS: Thidiazuron; 100 g/L loading
ENDPOINT: Ratio of Active Ingredient in Dendrimer Solution (ppm) to Active Ingredient in Water (ppm)

1) CCC(COCC(O)CN(CCO)CCO)(COCC(O)CN(CCO)CCO)COCC(O)CN(CCO)CCO (stereo not shown)    39
2) CCC(COCC(O)CN(CCN)CCN)(COCC(O)CN(CCN)CCN)COCC(O)CN(CCN)CCN (stereo not shown)    329
3) CCC(COCC(O)CN(CC(=O)[O-])CC(=O)[O-])(COCC(O)CN(CC(=O)[O-])CC(=O)[O-])COCC(O)CN(CC(=O)[O-])CC(=O)[O-].[Na+].[Na+].[Na+].[Na+].[Na+].[Na+] (stereo not shown)    40

// switching to the query compound
Prompt line: Entry under review: CCC(COCC(O)CN(CCOC)CCOC)(COCC(O)CN(CCOC)CCOC)COCC(O)CN(CCOC)CCOC (stereo not shown) . Reported Ratio of Active Ingredient in Dendrimer Solution (ppm) to Active Ingredient in Water (ppm)?
Response line: 17

----------
- ASSAY DETAILS: Solubility of active constituents in dendrimer solutions by HPLC (Example 26)
- Type: physicochemical
- TEST PARAMETERS: Pendimethalin; 100 g/L loading
Reported Ratio of Active Ingredient in Dendrimer Solution (ppm) to Active Ingredient in Water (ppm) values for the following compounds.
Could you respond with only the numeric value?

The examples below pair each entry with its known result.
1) CCC(COCC(O)CN(CCO)CCO)(COCC(O)CN(CCO)CCO)COCC(O)CN(CCO)CCO (stereo not shown)    6
2) CCC(COCC(O)CN(CCOC)CCOC)(COCC(O)CN(CCOC)CCOC)COCC(O)CN(CCOC)CCOC (stereo not shown)    41
3) CCC(COCC(O)CN(CC(=O)[O-])CC(=O)[O-])(COCC(O)CN(CC(=O)[O-])CC(=O)[O-])COCC(O)CN(CC(=O)[O-])CC(=O)[O-].[Na+].[Na+].[Na+].[Na+].[Na+].[Na+] (stereo not shown)    2

Prompt line: Entry under review: CCC(COCC(O)CN(CCN)CCN)(COCC(O)CN(CCN)CCN)COCC(O)CN(CCN)CCN (stereo not shown) . Reported Ratio of Active Ingredient in Dendrimer Solution (ppm) to Active Ingredient in Water (ppm)?
Response line: 15

----------
- ASSAY DETAILS: Solubility of active constituents in dendrimer solutions by HPLC (Example 26)
- Type: physicochemical
- TEST PARAMETERS: Flumetsulam; 100 g/L loading
ENDPOINT: Ratio of Active Ingredient in Dendrimer Solution (ppm) to Active Ingredient in Water (ppm)
Could you respond with only the numeric value?

Prompt line: Entry under review: CCC(COCC(O)CN(CCOC)CCOC)(COCC(O)CN(CCOC)CCOC)COCC(O)CN(CCOC)CCOC (stereo not shown) [Example 15] . Reported Ratio of Active Ingredient in Dendrimer Solution (ppm) to Active Ingredient in Water (ppm)?
Response line: 2

Prompt line: Entry under review: CCC(COCC(O)CN(CCO)CCO)(COCC(O)CN(CCO)CCO)COCC(O)CN(CCO)CCO (stereo not shown) [Example 2] . Reported Ratio of Active Ingredient in Dendrimer Solution (ppm) to Active Ingredient in Water (ppm)?
Response line: 4

Prompt line: Entry under review: CCC(COCC(O)CN(CCN)CCN)(COCC(O)CN(CCN)CCN)COCC(O)CN(CCN)CCN (stereo not shown) [Example 14] . Reported Ratio of Active Ingredient in Dendrimer Solution (ppm) to Active Ingredient in Water (ppm)?
Response line: 2

Prompt line: Entry under review: CCC(COCC(O)CN(CC(=O)[O-])CC(=O)[O-])(COCC(O)CN(CC(=O)[O-])CC(=O)[O-])COCC(O)CN(CC(=O)[O-])CC(=O)[O-].[Na+].[Na+].[Na+].[Na+].[Na+].[Na+] (stereo not shown) [Example 10] . Reported Ratio of Active Ingredient in Dendrimer Solution (ppm) to Active Ingredient in Water (ppm)?
Response line: 2

// provenance: patent US9585387B1
